Entry source: a melting point compilation (Tetko et al.; mined from patent text by program, amines drawn as free bases though some values may be those of a salt)

Listing of entries alongside the reported melting point.
property_name: melting point

1. CCOC(=O)C(NC(=O)OC(C)(C)C)=C1CSCSC1 ... 154 °C
2. CNC(=O)c1cccc(NC(=O)Cc2cccc(O)c2)c1 ... 163 °C
3. COC(=O)c1cc(C(=O)OC)n(-c2ccc(Cl)cc2C(=O)c2ccccc2)n1 ... 118 to 120 °C
4. CCc1cc(NC(=O)C(CS)Cc2ccccc2)cc(C(=O)O)c1 (stereo unspecified) ... 159 to 160 °C
5. O=C/C=C/c1ccc(C(F)(F)F)cc1 ... 60 to 61 °C
6. COC(=O)c1ccc2c(C(C(=O)O)c3ccc4c(c3)OCO4)cn(C)c2c1 (stereo unspecified) ... 194 to 198 °C
7. CC(C)OC(=O)C1C(=S)NCC1C (stereo unspecified) ... 41 to 44 °C
8. C=CCOc1ccc(C(=O)C=Cc2cc(OC)c(CCCC)c(OC)c2)cc1 ... 74 to 75 °C
9. COC(=O)c1cc(O)cc(O[C@@H](C)CO)c1 ... 133 °C
10. CC(=O)CC(=O)NC(=O)C(C)C ... 148 to 160 °C
11. COc1ccc2ccc(N3C(=O)c4ccccc4C3CC(=O)CCN(C)C)nc2n1 (stereo unspecified) ... 140 °C
